System: UniProtKB P09874 | Read-out: IC50 | Origin: multiple publications
property label: IC50

smiles | result
CCc1cc2ncc(C=C3CCN(c4ccc(C(=O)NC)nc4)CC3)cc2[nH]c1=O | 0.33 nM
CCc1nc2ccc(CN3CCN(c4ccc(C(=O)NC)nc4Cl)CC3)c(F)c2[nH]c1=O | 5 nM
CNC(=O)c1ccc(N2CCN(Cc3ccc4nc(C(C)C)c(=O)[nH]c4c3F)CC2)cn1 | 26 nM
Cc1nc2c(F)cc(-c3nc(Nc4ccc(CN5CCN(C(=O)c6cc(Cc7n[nH]c(=O)c8ccccc78)ccc6F)CC5)cc4)ncc3F)cc2n1C(C)C | 10 to 100 nM
